Biological target: T1, STEAP2/1 chimeric construct
T1 construct: Expressed on engineered PC3 human prostate cancer cells; also called PC3_STEAP2/1
Experiment: FACS titration on PC3 cells expressing the STEAP2/1 chimera
observed property: pEC50
Just so you know, pEC50 here is -log10 of the concentration in molar units; reply with that number alone.

Memo: BSSTEAP2/CD3-006 (bispecific antibody, V domains shown) VH 1: QVQLQQSGPGLVKPSQTLSLTCAISGDSVSSNRAAWNWIRQSPSRGLQWLGRTYYRSKWYNDYAVSLRSRITINPVTSKNQVALHMNSVTPEDTAVYYCARAGIVVVPGPETFYYYDHGLDVWGQGTTVTVSS VH 2: EVQLVESGGGLVQPGRSLRLSCVASGFTFDDYSMHWVRQAPGKGLEWVSGISWNSGSKDYADSVKGRFTISRDNAKNSLYLQMNSLRAEDTALYYCAKYGSGYGKFYHYGLDVWGQGTTVTVSS VL: DIQMTQSPSSLSASVGDRVTITCRASQSIRSYLNWYQQKPGKAPELLIHAASSLQSGVPSRFSGSGSGTDFTLTISSLQPEDFASYYCQQSYSAPPITFGQGTRLEIK , reported pEC50: 7.91
